These measurements were taken from patent US9834823B2.

- Tested on: extraintestinal Escherichia coli isolates
- PROCEDURE DETAILS: Antimicrobial susceptibility testing (CLSI breakpoints), Olmsted County isolates
- Type: cell-based
- SETTINGS: ST9, N = 32
OBSERVABLE: No. of resistant isolates (column %)
Just the number, please, no unit after it.

| MOLECULE | SYSTEM UNDER TEST | REPORTED MEASUREMENT |
| --- | --- | --- |
| CO/N=C(\C(=O)N[C@@H]1C(=O)N2C(C(=O)O)=C(CSc3nc(=O)c(=O)[nH]n3C)CS[C@H]12)c1csc(N)n1 [Ceftriaxone, ceftriaxone] | extraintestinal Escherichia coli isolates | 0 |

Consider the additional molecule presented here.
Please tell me the measured No. of resistant isolates (column %) for C[C@@H](O)[C@H]1C(=O)N2C(C(=O)O)=C(SCCN=CN)C[C@H]12 [Imipenem, imipenem] ; system: extraintestinal Escherichia coli isolates. 0

----------
- Tested on: extraintestinal Escherichia coli isolates
- PROCEDURE DETAILS: Antimicrobial susceptibility testing (CLSI breakpoints), Olmsted County isolates
- Assay type: cell-based
- SETTINGS: H30 ST131 subclone, N = 70
Below, each entry is listed with its recorded Resistance prevalence among H30 ST131.
Answers without a unit are incomplete; give the number and then its unit.

Use the examples below as a reference point.
| COMPOUND STRUCTURE STRING | Resistance prevalence among H30 ST131 |
| --- | --- |
| CO/N=C(\C(=O)N[C@@H]1C(=O)N2C(C(=O)O)=C(CSc3nc(=O)c(=O)[nH]n3C)CS[C@H]12)c1csc(N)n1 | 9% |
| CC1(C)S[C@@H]2[C@H](NC(=O)[C@H](N)c3ccccc3)C(=O)N2[C@H]1C(=O)O | 81% |
| Cc1nnc(SCC2=C(C(=O)O)N3C(=O)[C@@H](NC(=O)Cn4cnnn4)[C@H]3SC2)s1 | 58% |

Here is another molecule to look at.
Provide one value: measured Resistance prevalence among H30 ST131 of O=C1CN(/N=C/c2ccc([N+](=O)[O-])o2)C(=O)N1 3%

----------
- Test system: Escherichia coli clinical isolates (ESBL-positive and ESBL-negative; ST131 subclones)
- PROCEDURE DETAILS: Broth microdilution antimicrobial susceptibility, NorthShore ESBL case-control isolates
- Type: cell-based
- SETTINGS: ESBL-positive isolates, ST131 N = 49
OBSERVABLE: No. resistant (column %)

| COMPOUND STRUCTURE STRING | OBSERVABLE | REPORTED MEASUREMENT |
| --- | --- | --- |
| CC1(C)S[C@@H]2[C@H](NC(=O)[C@H](N)c3ccccc3)C(=O)N2[C@H]1C(=O)O | No. resistant (column %) | 49 (100) |

Look up and report measured No. resistant (column %) for this entry: CC(C)(O/N=C(\C(=O)N[C@@H]1C(=O)N2C(C(=O)[O-])=C(C[n+]3ccccc3)CS[C@H]12)c1csc(N)n1)C(=O)O 45 (92)

Report No. resistant (column %), nothing else, for this compound: Cc1nnc(SCC2=C(C(=O)O)N3C(=O)[C@@H](NC(=O)Cn4cnnn4)[C@H]3SC2)s1 48 (98)

Give the measured No. resistant (column %) for CO/N=C(\C(=O)N[C@@H]1C(=O)N2C(C(=O)O)=C(CSc3nc(=O)c(=O)[nH]n3C)CS[C@H]12)c1csc(N)n1 47 (96)

----------
Below, each of the compounds is paired with its reported No. of resistant isolates (column %), Non-H30 (N = 9) value.
- Test system: Escherichia coli clinical isolates (ESBL-positive and ESBL-negative; ST131 subclones)
- PROCEDURE DETAILS: Broth microdilution antimicrobial susceptibility, NorthShore ESBL case-control isolates
- Assay type: cell-based
- SETTINGS: non-H30 isolates (N = 9) among 71 E. coli ST131 isolates

Field: example entries. Status: answers known.
| COMPOUND | REPORTED MEASUREMENT |
| --- | --- |
| Cc1nnc(SCC2=C(C(=O)O)N3C(=O)[C@@H](NC(=O)Cn4cnnn4)[C@H]3SC2)s1 [Cefazolin, cefazolin] | 1 (11) No. (column %) |
| CO/N=C(\C(=O)N[C@@H]1C(=O)N2C(C(=O)O)=C(CSc3nc(=O)c(=O)[nH]n3C)CS[C@H]12)c1csc(N)n1 [Ceftriaxone, ceftriaxone] | 1 (11) No. (column %) |
| CC1(C)S[C@@H]2[C@H](NC(=O)[C@H](N)c3ccccc3)C(=O)N2[C@H]1C(=O)O [Ampicillin, ampicillin] | 7 (78) No. (column %) |

Shifting focus to the compound that follows.
Hello, please tell me recorded No. of resistant isolates (column %), Non-H30 (N = 9) for this one: CC(C)(O/N=C(\C(=O)N[C@@H]1C(=O)N2C(C(=O)[O-])=C(C[n+]3ccccc3)CS[C@H]12)c1csc(N)n1)C(=O)O [Ceftazidime] 1 (11) No. (column %)

----------
Reported Prevalence of resistance, Total (%) values are given for each entry in this list.
- System: Escherichia coli clinical isolates from U.S. veterans
- PROCEDURE DETAILS: Susceptibility testing (broth microdilution or disk diffusion) at VAMCs with population back-calculations
- Assay type: cell-based
- SETTINGS: all isolates
# output: numeric value plus its unit

Consider the worked cases shown below.
| COMPOUND | Prevalence of resistance, Total (%) |
| --- | --- |
| Cc1nnc(SCC2=C(C(=O)O)N3C(=O)[C@@H](NC(=O)Cn4cnnn4)[C@H]3SC2)s1 [Cefazolin, cefazolin] | 17% |
| CO/N=C(\C(=O)N[C@@H]1C(=O)N2C(C(=O)O)=C(CSc3nc(=O)c(=O)[nH]n3C)CS[C@H]12)c1csc(N)n1 [Ceftriaxone, ceftriaxone] | 2% |
| O=C1CN(/N=C/c2ccc([N+](=O)[O-])o2)C(=O)N1 [Nitrofurantoin, nitrofurantoin] | 6% |
| CC1(C)S[C@@H]2[C@H](NC(=O)[C@H](N)c3ccccc3)C(=O)N2[C@H]1C(=O)O [Ampicillin, ampicillin] | 46% |

Now take the following compound into account.
Quote Prevalence of resistance, Total (%) reported for C[C@@H](O)[C@H]1C(=O)N2C(C(=O)O)=C(SCCN=CN)C[C@H]12 [Imipenem, imipenem] please. 0.25%

----------
- System: Escherichia coli clinical isolates from U.S. veterans
- PROCEDURE DETAILS: Susceptibility testing (broth microdilution or disk diffusion) at VAMCs with population back-calculations
- Assay type: cell-based
- SETTINGS: resistance prevalence among ST131 isolates relative to all other isolates
The entries below come with measured Prevalence ratio of resistance values attached.
Form rule: numeric answer, no unit written next to it.

Provide Prevalence ratio of resistance, tested on Escherichia coli clinical isolates from U.S. veterans, for Cc1nnc(SCC2=C(C(=O)O)N3C(=O)[C@@H](NC(=O)Cn4cnnn4)[C@H]3SC2)s1 . 2.3

Would you please give the reported Prevalence ratio of resistance of CO/N=C(\C(=O)N[C@@H]1C(=O)N2C(C(=O)O)=C(CSc3nc(=O)c(=O)[nH]n3C)CS[C@H]12)c1csc(N)n1 with Escherichia coli clinical isolates from U.S. veterans? 1.9

Give the observed Prevalence ratio of resistance of C[C@@H](O)[C@H]1C(=O)N2C(C(=O)O)=C(SCCN=CN)C[C@H]12 for Escherichia coli clinical isolates from U.S. veterans. 1.4

GET Prevalence ratio of resistance | system: Escherichia coli clinical isolates from U.S. veterans | item: CC1(C)S[C@@H]2[C@H](NC(=O)[C@H](N)c3ccccc3)C(=O)N2[C@H]1C(=O)O 2.3

# return Prevalence ratio of resistance for O=C1CN(/N=C/c2ccc([N+](=O)[O-])o2)C(=O)N1 , test system: Escherichia coli clinical isolates from U.S. veterans 3.2

----------
Item-by-item account of No. of resistant isolates (column %)
- System: extraintestinal Escherichia coli isolates
- PROCEDURE DETAILS: Antimicrobial susceptibility testing (CLSI breakpoints), Olmsted County isolates
- Assay type: cell-based
- SETTINGS: ST69, N = 15
Response field accepts a number only; no unit should be typed.

Solved entries:
| COMPOUND STRUCTURE STRING | No. of resistant isolates (column %) |
| --- | --- |
| CO/N=C(\C(=O)N[C@@H]1C(=O)N2C(C(=O)O)=C(CSc3nc(=O)c(=O)[nH]n3C)CS[C@H]12)c1csc(N)n1 | 0 |
| O=C1CN(/N=C/c2ccc([N+](=O)[O-])o2)C(=O)N1 | 0 |

We now examine a further molecule.
Return reported No. of resistant isolates (column %). Input molecule: C[C@@H](O)[C@H]1C(=O)N2C(C(=O)O)=C(SCCN=CN)C[C@H]12 0

----------
- System: Escherichia coli clinical isolates (ESBL-positive and ESBL-negative; ST131 subclones)
- PROCEDURE DETAILS: Broth microdilution antimicrobial susceptibility, NorthShore ESBL case-control isolates
- Format: cell-based
- SETTINGS: H30-Rx subclone isolates (N = 47) within the H30 ST131 subclone
OBSERVABLE: No. of resistant isolates (column %), H30-Rx (N = 47)

Known No. of resistant isolates (column %), H30-Rx (N = 47) results, listed for orientation:
| COMPOUND STRUCTURE STRING | REPORTED MEASUREMENT |
| --- | --- |
| CO/N=C(\C(=O)N[C@@H]1C(=O)N2C(C(=O)O)=C(CSc3nc(=O)c(=O)[nH]n3C)CS[C@H]12)c1csc(N)n1 | 42 (89) No. (column %) |
| Cc1nnc(SCC2=C(C(=O)O)N3C(=O)[C@@H](NC(=O)Cn4cnnn4)[C@H]3SC2)s1 | 43 (91) No. (column %) |
| CC1(C)S[C@@H]2[C@H](NC(=O)[C@H](N)c3ccccc3)C(=O)N2[C@H]1C(=O)O | 46 (98) No. (column %) |

Please examine the following record next.
Consider the compound CC(C)(O/N=C(\C(=O)N[C@@H]1C(=O)N2C(C(=O)[O-])=C(C[n+]3ccccc3)CS[C@H]12)c1csc(N)n1)C(=O)O and give its recorded No. of resistant isolates (column %), H30-Rx (N = 47). 40 (85) No. (column %)
